Readings of pIC50 for the listed molecules
Biological target: human ALK2 R206H (Homo sapiens, UniProt Q04771, R206H)
Construct: expressed in transfected cells; host or cells: HEK293 (ATCC CRL1573), lentivirus transduction, blasticidin selection
Experiment: Cell-based ALK2-R206H cell activity assay (Smad1-Ser463/Ser465 phosphorylation by AlphaLISA in HEK293-ALK2-R206H cells)
Conditions: read-out: Cell Line (Cell Assay IC50)
pIC50: −log10 of the molar value.

Worked examples follow.
CC(C)NC(=O)N1CCN(c2ccnn3cc(-c4ccc(C5COCCN5C(C)C)cc4)cc23)CC1 (stereo not drawn) :: > 7.00
O=C(C1CC1)N1CCN(c2ccnn3cc(-c4ccc(C5CCCN5)cn4)cc23)CC1 (stereo not drawn) [Compound 453] :: > 7.00
CCN1CCC(Oc2ccc(-c3cc4c(N5CCN(C(=O)C6CC6)CC5)ccnn4c3)cc2)CC1 :: 6.30 to 7.00
CC(C)N[C@@H](CO)c1ccc(-c2cc3c(N4CCN(C(=O)C5CC5)CC4)ccnn3c2)cc1 :: > 7.00
CO[C@@]1(c2ccc(-c3cc4c(N5CCN(C(=O)NC(C)C)CC5)ccnn4c3)cc2)CCCNC1 :: > 7.00

Ask: Give the measured pIC50 of CCN1CCC(c2ccc(-c3cc4c(N5CCN(C(=O)C6CC6)CC5)ccnn4c3)cc2)C1 (stereo not drawn) .
Reply: > 7.00

Ask: Okay, and `CC(C)NC(=O)N1CCN(c2ccnn3cc(-c4ccc([C@@H]5CCCN(C(C)C)C5)cc4)cc23)CC1` ?
Reply: > 7.00

Ask: Okay, and CC(C)(O)C(N)c1ccc(-c2cc3c(N4CCN(C(=O)C5CC5)CC4)ccnn3c2)cc1 (stereo not drawn) ?
Reply: > 7.00

Ask: Okay, and `CCOC(=O)N1CCN(c2ccnn3cc(-c4ccc([C@H]5CCCN(C(C)C)C5)cc4)cc23)CC1` ?
Reply: > 7.00

Ask: Okay, and CCN1CCC(c2ccc(-c3cc4c(N5CCN(C(=O)C6CC6)CC5)ccnn4c3)cc2)C(F)(F)C1 (stereo not drawn) ?
Reply: < 6.30

* * *

Readings of pIC50 for the listed compounds
Biological target: human ALK2 R206H (Homo sapiens, UniProt Q04771, R206H)
Construct: expressed in transfected cells; host or cells: HEK293 (ATCC CRL1573), lentivirus transduction, blasticidin selection
Test: Cell-based ALK2-R206H cell activity assay (Smad1-Ser463/Ser465 phosphorylation by AlphaLISA in HEK293-ALK2-R206H cells)
Conditions: read-out: Cell Line (Cell Assay IC50)
pIC50: −log10 of the molar value.

CCOC(=O)N1CCN(c2ccnn3cc(-c4ccc(N5CCNCC5)cc4)cc23)CC1 [Compound 143] :: > 7.00

Ask: Give the measured pIC50 of CCO[C@@]1(c2ccc(-c3cc4c(N5CCN(C(=O)NC(C)C)CC5)ccnn4c3)nc2)CCCNC1 [Compound 797] .
Reply: > 7.00

Ask: Okay, and CCNC(=O)N1CCN(c2ccnn3cc(-c4ccc(C5(OC)CCN(C(C)C)CC5)cc4)cc23)CC1 [Compound 399] ?
Reply: > 7.00

Ask: Okay, and NC1(c2ccc(-c3cc4c(N5CCN(C(=O)C6CC6)CC5)ccnn4c3)cc2)CCOCC1 [Compound 768] ?
Reply: > 7.00

Ask: Okay, and CCO[C@@]1(c2ccc(-c3cc4c(N5CCN(C(=O)OC6COC6)CC5)ccnn4c3)nc2)CCCNC1 [Compound 819] ?
Reply: > 7.00

Ask: Okay, and CCN1CCC(c2ccc(-c3cc4c(N5CCN(C(=O)N6CCCCC6)CC5)ccnn4c3)cc2)CC1 [Compound 379] ?
Reply: 6.30 to 7.00

Ask: Okay, and CC(C)NC(=O)N1CCN(c2ccnn3cc(-c4ccc([C@]5(C)CN(C(C)C)CCN5C)cc4)cc23)CC1 [Compound 671] ?
Reply: > 7.00

Ask: Okay, and COC[C@H](C)N1CCC(OC)(c2ccc(-c3cc4c(N5CCN(C(=O)[C@H]6C[C@H](C#N)C6)CC5)ccnn4c3)cc2)CC1 [Compound 745] ?
Reply: > 7.00

Ask: Okay, and CC(C)N1CCC(c2ccc(-c3cc4c(N5CCN(C(=O)OC6COC6)CC5)ccnn4c3)cc2)CC1 [Compound 629] ?
Reply: > 7.00

Ask: Okay, and CCNC(=O)N1CCN(c2ccnn3cc(-c4ccc([C@@]5(O)CCCN(C(C)C)C5)cc4)cc23)CC1 [Compound 592] ?
Reply: > 7.00

Ask: Okay, and O=C(C1CC1)N1CCN(c2ccnn3cc(-c4cccc(C5CNCCO5)c4)cc23)CC1 (centres unmarked) [Compound 128] ?
Reply: 6.30 to 7.00

Ask: Okay, and CCN1CCN(c2ccc(-c3cc4c(N5CCN(C(=O)[C@H]6C[C@@H]6C#N)CC5)ccnn4c3)cc2)CC1 [Compound 302] ?
Reply: > 7.00

* * *

Target: ALK2 R206H (GST-tagged mutant ALK2) (Homo sapiens, UniProt Q04771, R206H)
Construct: purchased Carna Bioscience or ThermoFisher 09-148 or PV6232
Sequence (Q04771 21-509 R206H): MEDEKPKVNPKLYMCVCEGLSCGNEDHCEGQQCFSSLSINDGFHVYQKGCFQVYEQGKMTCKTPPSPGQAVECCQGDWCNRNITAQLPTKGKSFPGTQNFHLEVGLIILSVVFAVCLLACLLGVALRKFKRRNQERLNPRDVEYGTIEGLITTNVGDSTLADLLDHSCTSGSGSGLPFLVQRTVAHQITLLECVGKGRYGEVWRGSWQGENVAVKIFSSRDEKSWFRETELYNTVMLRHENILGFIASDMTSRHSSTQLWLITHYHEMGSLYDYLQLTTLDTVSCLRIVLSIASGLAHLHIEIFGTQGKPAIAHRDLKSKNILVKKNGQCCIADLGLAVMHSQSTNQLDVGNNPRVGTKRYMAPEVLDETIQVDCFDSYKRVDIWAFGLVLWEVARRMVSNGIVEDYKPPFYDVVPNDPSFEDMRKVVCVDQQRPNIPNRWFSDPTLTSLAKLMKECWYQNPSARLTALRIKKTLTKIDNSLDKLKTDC
Test: ALK binding assay (LANTHASCREEN TR-FRET competitive binding, displacement of Kinase Tracer 178)
Conditions: ALK2 R206H, LANTHASCREEN TR-FRET competitive binding; read-out: Binding Assay (IC50)
pIC50: −log10 of the molar value.
measurement.label: pIC50

Worked examples follow.
O=C(C1CC1)N1CCN(c2ccnn3cc(-c4cc5c(s4)CNCC5)cc23)CC1 :: > 8.00
CCOC(=O)N1CCN(c2ccnn3cc(-c4ccc([C@@]5(OCC)CCCNC5)cn4)cc23)CC1 :: > 8.00
CC(C)N1CC[C@@H](c2ccc(-c3cc4c(N5CCN(C(=O)[C@H]6C[C@H](C#N)C6)CC5)ccnn4c3)cc2)C1 :: > 8.00

Ask: Give the measured pIC50 of `CCOC(=O)N1CCN(c2ccnn3cc(-c4ccc(C5(OC)CCN(C(C)C)CC5)cn4)cc23)CC1` .
Reply: > 8.00

Ask: Okay, and `CC(C)NC(=O)N1CCN(c2ccnn3cc(-c4ccc([C@@]5(O)CCN(C(C)C)C5)cn4)cc23)CC1` ?
Reply: > 8.00

Ask: Okay, and `COCC1(c2ccc(-c3cc4c(N5CCN(C(=O)C6CC6)CC5)ccnn4c3)cc2)CCN(C(C)C)CC1` ?
Reply: > 8.00

Ask: Okay, and `CO[C@]1(c2ccc(-c3cc4c(N5CCN(C(=O)NC(C)C)CC5)ccnn4c3)cc2)CCN(C(C)C)C1` ?
Reply: > 8.00

Ask: Okay, and `O=C(C1CC1)N1CCN(c2ccnn3cc(-c4ccc([C@@]5(F)CCCNC5)cc4)cc23)CC1` ?
Reply: > 8.00

Ask: Okay, and CCOC(=O)N1CCN(c2ccnn3cc(-c4ccc(C5CNCCO5)cc4)cc23)CC1 (stereo not drawn) ?
Reply: > 8.00

Ask: Okay, and `CCN1CCC(n2cc(-c3cc4c(N5CCN(C(=O)C6CC6)CC5)ccnn4c3)cn2)CC1` ?
Reply: 7.30 to 8.00

Ask: Okay, and `CCN1CCN(c2ccc(-c3cc4c(N5CCN(C(=O)[C@H]6C[C@@H]6C#N)CC5)ccnn4c3)cc2)CC1` ?
Reply: > 8.00

Ask: Okay, and `O=C(C1CC1)N1CCN(c2ccnn3cc(-c4ccc(Br)cc4)cc23)CC1` ?
Reply: < 7.30

Ask: Okay, and CCN1CC[C@H](c2ccc(-c3cc4c(N5CCN(C(=O)C6CC6)CC5)ccnn4c3)cc2)C(F)C1 (stereo partly drawn) ?
Reply: 7.30 to 8.00

Ask: Okay, and CC(N)(CO)c1ccc(-c2cc3c(N4CCN(C(=O)C5CC5)CC4)ccnn3c2)cc1 (stereo not drawn) ?
Reply: > 8.00

Ask: Okay, and `CC(=O)N1CCC(c2ccc(-c3cc4c(N5CCN(C(=O)C6CC6)CC5)ccnn4c3)cc2)CC1` ?
Reply: 7.30 to 8.00

* * *

Biological target: ALK2 R206H (GST-tagged mutant ALK2) (Homo sapiens, UniProt Q04771, R206H)
Construct: purchased Carna Bioscience or ThermoFisher 09-148 or PV6232
Assay: ALK binding assay (LANTHASCREEN TR-FRET competitive binding, displacement of Kinase Tracer 178)
Conditions: ALK2 R206H, LANTHASCREEN TR-FRET competitive binding; read-out: Binding Assay (IC50)
measurement.label: IC50

Worked examples follow.
O=C(C1CC1)N1CCN(c2ccnn3cc(-c4ccc(C5CCCN5)cc4)cc23)CC1 (centres unmarked) :: < 0.01 µM
CC(C)N[C@H](CO)c1ccc(-c2cc3c(N4CCN(C(=O)OC5COC5)CC4)ccnn3c2)cc1 :: < 0.01 µM
CC(C)N1CC(c2ccc(-c3cc4c(N5CCN(C(=O)[C@H]6CC[C@H](C#N)CC6)CC5)ccnn4c3)cc2)C1 :: < 0.01 µM
[2H]C([2H])([2H])C([2H])([2H])N1CCN(c2ccc(-c3cc4c(N5CCN(C(=O)C6CC6)CC5)ccnn4c3)cc2)CC1 :: < 0.01 µM
CCNC(=O)N1CCN(c2ccnn3cc(-c4ccc(C5CN(C(C)C)CCN5C)cc4)cc23)CC1 (centres unmarked) :: < 0.01 µM

# context switch: different molecule, same IC50
Ask: Give the measured IC50 of `CCN1CCN(c2ccc(-c3cc4c(N5CCN(C(=O)N6CC(C#N)C6)CC5)ccnn4c3)cc2)CC1` .
Reply: < 0.01 µM
